Measured values drawn from the supplement of paper PMC11061612 for this set.

tested on: NCI-H1963 (Small Cell Lung Carcinoma); experiment: combination Emax (second highest fraction inhibited in the dose matrix, 72 h); higher = more inhibition; extreme values may be limits of the assay
Task for the reader: assign each of the following molecules its reported combination Emax.
Numbers only.

Below are worked cases with known answers.
molecule: Cc1c2c(nn1C)CSCc1cc(n(C)n1)CSc1cc(c3ccccc3c1)OCCCc1c(C(=O)O)n(C)c3c-2c(Cl)ccc13 [AZD5991] + CC1(C)CCC(CN2CCN(c3ccc(C(=O)NS(=O)(=O)c4ccc(NCC5CCOCC5)c([N+](=O)[O-])c4)c(Oc4cnc5[nH]ccc5c4)c3)CC2)=C(c2ccc(Cl)cc2)C1 [Venetoclax] (first compound max 1 µM, 7x7, partner max 1 µM)
target under test: NCI-H1963 (Small Cell Lung Carcinoma)
combination Emax: 0.824

molecule: Cc1c2c(nn1C)CSCc1cc(n(C)n1)CSc1cc(c3ccccc3c1)OCCCc1c(C(=O)O)n(C)c3c-2c(Cl)ccc13 [AZD5991] + CN(C)CCCOc1ccc(-c2ccc3ncc4c(c3c2)n(C2CCOCC2)c(=O)n4C)cn1 [AZD0156] (first compound max 1 µM, 7x7, partner max 1 µM)
target under test: NCI-H1963 (Small Cell Lung Carcinoma)
combination Emax: 0.354

Now let's try a different one.
Asked: Field request: combination Emax | item: COc1cccc2c1C(=O)c1c(O)c3c(c(O)c1C2=O)C[C@@](O)(C(=O)CO)C[C@@H]3O[C@H]1C[C@H](N)[C@H](O)[C@H](C)O1 [Doxorubicin] + Cc1cc2ncnn2cc1Nc1ncc2c(n1)n(C1CCOCC1)c(=O)n2C [AZD7648] (first compound max 1 µM, 7x7, partner max 10 µM)
Given back: 0.799

###

Task for the reader: assign each of the following compounds its reported Bliss excess.
tested on: NCI-H3118 (Head and Neck Carcinoma); assay: Bliss excess, mean over the matrix (fraction); higher = more synergy

Below are worked cases with known answers.
compound: CC1(C)CCC(CN2CCN(c3ccc(C(=O)NS(=O)(=O)c4ccc(NCC5CCOCC5)c([N+](=O)[O-])c4)c(Oc4cnc5[nH]ccc5c4)c3)CC2)=C(c2ccc(Cl)cc2)C1 [Venetoclax] + Cc1cc2ncnn2cc1Nc1ncc2c(n1)n(C1CCOCC1)c(=O)n2C [AZD7648] (first compound max 1 µM, 7x7, partner max 10 µM)
Bliss excess: -0.0369
--
compound: CC1(C)CCC(CN2CCN(c3ccc(C(=O)NS(=O)(=O)c4ccc(NCC5CCOCC5)c([N+](=O)[O-])c4)c(Oc4cnc5[nH]ccc5c4)c3)CC2)=C(c2ccc(Cl)cc2)C1 [Venetoclax] + COc1cc(Nc2ncc3c(n2)-c2ccc(Cl)cc2C(c2c(F)cccc2OC)=NC3)ccc1C(=O)O [Alisertib] (first compound max 1 µM, 7x7, partner max 10 µM)
Bliss excess: -0.0188

Now let's try a different one.
Asked: Field request: Bliss excess | item: O=C(c1cc(Cc2n[nH]c(=O)c3ccccc23)ccc1F)N1CCN(C(=O)C2CC2)CC1 [Olaparib] + CC1(C)CCC(CN2CCN(c3ccc(C(=O)NS(=O)(=O)c4ccc(NCC5CCOCC5)c([N+](=O)[O-])c4)c(Oc4cnc5[nH]ccc5c4)c3)CC2)=C(c2ccc(Cl)cc2)C1 [Venetoclax] (first compound max 10 µM, 7x7, partner max 1 µM)
Given back: -0.028

###

tested on: NCI-H1963 (Small Cell Lung Carcinoma); assay: Bliss excess, mean over the matrix (fraction); higher = more synergy
measured parameter: Bliss excess
Give bare numbers.

Below are worked cases with known answers.
molecule: COc1nnc2ccc(N3CCC(c4ccc(OCCN5CCN(C)C(=O)[C@H]5C)cc4)CC3)nn12 [AZD5153] + CN(CC[C@H](CSC1=CC=CC=C1)NC2=C(C=C(C=C2)S(=O)(=O)NC(=O)C3=CC=C(C=C3)N4CCC(CC4)[C@H](C5=CC=CC=C5C6=CC=C(C=C6)Cl)O)S(=O)(=O)C(F)(F)F)CCO [AZD4320] (first compound max 1 µM, 7x7, partner max 1 µM)
target under test: NCI-H1963 (Small Cell Lung Carcinoma)
readout number: 0.0696

molecule: C[C@@H](c1ccc2nccn2c1)n1nnc2ncc(-c3cnn(C)c3)nc21 [Savolitinib] + CC1(C)CCC(CN2CCN(c3ccc(C(=O)NS(=O)(=O)c4ccc(NCC5CCOCC5)c([N+](=O)[O-])c4)c(Oc4cnc5[nH]ccc5c4)c3)CC2)=C(c2ccc(Cl)cc2)C1 [Venetoclax] (first compound max 1 µM, 7x7, partner max 1 µM)
target under test: NCI-H1963 (Small Cell Lung Carcinoma)
readout number: -0.0237

molecule: Cc1c2c(nn1C)CSCc1cc(n(C)n1)CSc1cc(c3ccccc3c1)OCCCc1c(C(=O)O)n(C)c3c-2c(Cl)ccc13 [AZD5991] + CCN(CCO)CCCOc1ccc2c(Nc3cc(CC(=O)Nc4cccc(F)c4)[nH]n3)ncnc2c1 [AZD2811] (first compound max 1 µM, 7x7, partner max 1 µM)
target under test: NCI-H1963 (Small Cell Lung Carcinoma)
readout number: -0.0088

Asked: Field request: Bliss excess | item: CCc1c2c(nc3ccc(O)cc13)-c1cc3c(c(=O)n1C2)COC(=O)[C@]3(O)CC [SN-38] + CN(C)CCCOc1ccc(-c2ccc3ncc4c(c3c2)n(C2CCOCC2)c(=O)n4C)cn1 [AZD0156] (first compound max 0.3 µM, 7x7, partner max 1 µM)
Given back: 0.0847

###

system: MDA-MB-415 (Breast Carcinoma); assay: Bliss excess, mean over the matrix (fraction); higher = more synergy
Task for the reader: assign each of the following compounds its reported Bliss excess.
Answers are plain numbers.

Below are worked cases with known answers.
compound: C[C@@H](Oc1cc(-c2cnn(C3CCNCC3)c2)cnc1N)c1c(Cl)ccc(F)c1Cl [Crizotinib] + Cn1cnc2c(F)c(Nc3ccc(Br)cc3Cl)c(C(=O)NOCCO)cc21 [Selumetinib] (first compound max 10 µM, 7x7, partner max 10 µM)
Bliss excess: -0.0114
//
compound: COc1cccc(OCCCN)c1-c1cc(Nc2cnc(C#N)cn2)n[nH]1 [Prexasertib] + CCc1c2c(nc3ccc(O)cc13)-c1cc3c(c(=O)n1C2)COC(=O)[C@]3(O)CC [SN-38] (first compound max 1 µM, 7x7, partner max 0.3 µM)
Bliss excess: 0.106

Asked: Field request: Bliss excess | item: CN(CCO)CC[C@H](CSc1ccccc1)Nc1ccc(S(=O)(=O)NC(=O)c2ccc(N3CCC([C@@H](O)c4ccccc4-c4ccc(Cl)cc4)CC3)cc2)cc1S(=O)(=O)C(F)(F)F [AZD4320] + C1CN(CCC1(C(=O)N[C@@H](CCO)C2=CC=C(C=C2)Cl)N)C3=NC=NC4=C3C=CN4 [Capivasertib] (first compound max 1 µM, 7x7, partner max 3 µM)
Given back: -0.0284

###

tested on: NCI-H596 (Other Solid Carcinomas); assay: combination Emax (second highest fraction inhibited in the dose matrix, 72 h); higher = more inhibition; extreme values may be limits of the assay
Task for the reader: assign each of the following molecules its reported combination Emax.

molecule: CC(=O)Nc1cccc(-n2c(=O)n(C3CC3)c(=O)c3c(Nc4ccc(I)cc4F)n(C)c(=O)c(C)c32)c1 [Trametinib] + Cc1nc(-c2cn3c(n2)-c2ccc(-c4cnn(C(C)(C)C(N)=O)c4)cc2OCC3)n(C(C)C)n1 [Taselisib] (first compound max 1 µM, 7x7, partner max 10 µM)
combination Emax: 0.81
//
molecule: CN(CCO)CC[C@H](CSc1ccccc1)Nc1ccc(S(=O)(=O)NC(=O)c2ccc(N3CCC([C@@H](O)c4ccccc4-c4ccc(Cl)cc4)CC3)cc2)cc1S(=O)(=O)C(F)(F)F [AZD4320] + C=CCn1c(=O)c2cnc(Nc3ccc(N4CCN(C)CC4)cc3)nc2n1-c1cccc(C(C)(C)O)n1 [AZD1775] (first compound max 1 µM, partner max 1 µM)
combination Emax: 0.318

Now let's try a different one.
Asked: Field request: combination Emax | item: CC(=O)c1c(C)c2cnc(Nc3ccc(N4CCNCC4)cn3)nc2n(C2CCCC2)c1=O [Palbociclib] + CN(CC[C@H](CSC1=CC=CC=C1)NC2=C(C=C(C=C2)S(=O)(=O)NC(=O)C3=CC=C(C=C3)N4CCC(CC4)[C@H](C5=CC=CC=C5C6=CC=C(C=C6)Cl)O)S(=O)(=O)C(F)(F)F)CCO [AZD4320] (first compound max 10 µM, 7x7, partner max 1 µM)
Given back: 0.521

###

test system: ZR-75-30 (Breast Carcinoma); assay: combination Emax (second highest fraction inhibited in the dose matrix, 72 h); higher = more inhibition; extreme values may be limits of the assay
Task for the reader: assign each of the following compounds its reported combination Emax.
Numbers only.

Hey, quick one: what's combination Emax for each of these?
1. CC1(C)CCC(CN2CCN(c3ccc(C(=O)NS(=O)(=O)c4ccc(NCC5CCOCC5)c([N+](=O)[O-])c4)c(Oc4cnc5[nH]ccc5c4)c3)CC2)=C(c2ccc(Cl)cc2)C1 [Venetoclax] + C=CCn1c(=O)c2cnc(Nc3ccc(N4CCN(C)CC4)cc3)nc2n1-c1cccc(C(C)(C)O)n1 [AZD1775] (first compound max 1 µM, partner max 1 µM)
2. CN(CCO)CC[C@H](CSc1ccccc1)Nc1ccc(S(=O)(=O)NC(=O)c2ccc(N3CCC([C@@H](O)c4ccccc4-c4ccc(Cl)cc4)CC3)cc2)cc1S(=O)(=O)C(F)(F)F [AZD4320] + C1CN(CCC1(C(=O)N[C@@H](CCO)C2=CC=C(C=C2)Cl)N)C3=NC=NC4=C3C=CN4 [Capivasertib] (first compound max 1 µM, 7x7, partner max 3 µM)
3. COc1cccc2c1C(=O)c1c(O)c3c(c(O)c1C2=O)C[C@@](O)(C(=O)CO)C[C@@H]3O[C@H]1C[C@H](N)[C@H](O)[C@H](C)O1 [Doxorubicin] + Cc1cc2ncnn2cc1Nc1ncc2c(n1)n(C1CCOCC1)c(=O)n2C [AZD7648] (first compound max 1 µM, 7x7, partner max 10 µM)
4. CN(CCO)CC[C@H](CSc1ccccc1)Nc1ccc(S(=O)(=O)NC(=O)c2ccc(N3CCC([C@@H](O)c4ccccc4-c4ccc(Cl)cc4)CC3)cc2)cc1S(=O)(=O)C(F)(F)F [AZD4320] + CS(=O)(=O)CCNCc1ccc(-c2ccc3ncnc(Nc4ccc(OCc5cccc(F)c5)c(Cl)c4)c3c2)o1 [Lapatinib] (first compound max 1 µM, 7x7, partner max 10 µM)
5. N#Cc1cnc(Nc2cc(NC[C@H]3CNCCO3)c(C(F)(F)F)cn2)cn1 [SRA737] + Nc1ccn([C@@H]2O[C@H](CO)[C@@H](O)C2(F)F)c(=O)n1 [Gemcitabine] (first compound max 10 µM, 7x7, partner max 0.3 µM)
6. COc1nnc2ccc(N3CCC(c4ccc(OCCN5CCN(C)C(=O)[C@H]5C)cc4)CC3)nn12 [AZD5153] + Cc1c2c(nn1C)CSCc1cc(n(C)n1)CSc1cc(c3ccccc3c1)OCCCc1c(C(=O)O)n(C)c3c-2c(Cl)ccc13 [AZD5991] (first compound max 1 µM, 7x7, partner max 1 µM)

Given back:
1: 0.159; 2: 0.307; 3: 0.3; 4: 0.957; 5: 0.312; 6: 0.29

Asked: Field request: combination Emax | item: Cc1c2c(nn1C)CSCc1cc(n(C)n1)CSc1cc(c3ccccc3c1)OCCCc1c(C(=O)O)n(C)c3c-2c(Cl)ccc13 [AZD5991] + Nc1ccn([C@@H]2O[C@H](CO)[C@@H](O)C2(F)F)c(=O)n1 [Gemcitabine] (first compound max 1 µM, 7x7, partner max 0.3 µM)
Given back: 0.36
